B1: Storkhead-box protein 2, residues 64 to 141; numbered along this chain, Q9P2F5 (parent)
chain: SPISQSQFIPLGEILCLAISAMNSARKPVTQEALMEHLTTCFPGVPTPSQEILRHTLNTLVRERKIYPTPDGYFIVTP

Variants of: B1
Test: abundance fitness (aPCA) (normalised: wild type 0, dead -1); higher = more abundant; growth selection in yeast, the domain comes from the species named
Conditions: Homo sapiens
Would you please tag the item Met when its abundance fitness is -0.1 or above, and Not met when it is below?

Please review the entries below; each comes with its answer.
Variant notation: N58H
Assigned label: Met

Variant notation: L11A
Assigned label: Not met

Variant notation: S24A
Assigned label: Met

Variant notation: C16A
Assigned label: Not met

Variant notation: C16V
Assigned label: Met

Variant notation: E36L
Assigned label: Met

Prompt: Check if abundance fitness >= -0.1 (inclusive). Item: S20D
Response: Not met

Prompt: Item C16N with abundance fitness of -0.1 or above?
Response: Met

Prompt: Please check the record V61H and state if its abundance fitness is at or above -0.1.
Response: Not met
